Test system: SR leukemia
Experiment: NCI tumour cell line growth inhibition, 48 h
Cut-off 40 µM on TGI, inclusive. At or above means Fulfilled; below means Not fulfilled.

[[record]]
compound = "CC1(C)O[C@@H](CC/C=C/CO)[C@H](CC/C=C/CO)O1"
class_assignment = "Fulfilled"

[[record]]
compound = "COc1ccc(/C=c2/s/c(=C(\\C#N)c3nc4ccccc4[nH]3)n(-c3ccccc3)c2=O)cc1"
class_assignment = "Fulfilled"

[[record]]
compound = "O=C(/C=C\\Sc1ccccn1)c1cccc(Br)c1"
class_assignment = "Not fulfilled"

[[record]]
compound = "CC1=C(Cc2ccccc2)C(Cc2ccccc2)=C(C)S1=O"
class_assignment = "Fulfilled"

[[record]]
compound = "Cc1ccc(NCCN(C)C)c2c(=O)c3cc(O)ccc3oc12"
class_assignment = "Not fulfilled"

[[record]]
compound = "CC(C)N(Cc1c(F)cccc1F)c1ccc(CO)c(Cl)c1"
class_assignment = "Fulfilled"

[[record]]
compound = "CCN(CC)c1ccc2cc3ccc(=[N+](CC)CC)cc-3oc2c1"
class_assignment = "Not fulfilled"

[[record]]
compound = "COc1ccc(OC)c2c1C=C[C@H](C1(C)SCCS1)C2C(C)=O (some centres undefined)"
class_assignment = "Fulfilled"

[[record]]
compound = "Cc1nc2ccc(Cl)cc2c(Cl)c1CCCl"
class_assignment = "Fulfilled"

[[record]]
compound = "C=Cc1c(C)c(O)cc2c1-c1ccc(O)c(C)c1CC2"
class_assignment = "Not fulfilled"

[[record]]
compound = "C=CC(C)c1cccc(C=O)c1O (centres undefined)"
class_assignment = "Fulfilled"

[[record]]
compound = "O=C1CCCC/C1=C(\\Br)I"
class_assignment = "Not fulfilled"

[[record]]
compound = "Cc1ccc(-c2nc3cc(N4CCN(C)CC4)c(F)cc3[nH]2)cc1"
class_assignment = "Fulfilled"

[[record]]
compound = "C=C1C(=O)O[C@@H]2[C@@H]3O[C@@H](C[C@@H]13)[C@](C)(O)CC/C=C(\\C)CCC[C@H]2C"
class_assignment = "Not fulfilled"

[[record]]
compound = "O=[N+]([O-])c1ccc2sc(C=Nc3ccc(O)cc3)cc2c1"
class_assignment = "Fulfilled"

[[record]]
compound = "COC(=O)C1=C(C(=O)OC)SC(=C(Cl)C(=S)Oc2ccccc2N)S1"
class_assignment = "Not fulfilled"

[[record]]
compound = "CC1(C)[C@@H]2CC[C@@]1(C)C1(SS1=O)C21Cc2ccccc2C1 (some centres undefined)"
class_assignment = "Fulfilled"


====

Recorded TGI, one value per entry.
Test system: UACC-257 melanoma
Assay: NCI tumour cell line growth inhibition, 48 h
Property: TGI

[[record]]
compound = "CN(C)c1ccc(/C=C(\\NC(=O)c2ccccc2)C(=O)Nc2ccccc2C(=O)NCc2ccccc2)cc1"
property = "TGI"
test_value = "> 100 µM"

[[record]]
compound = "COc1cc(/C=C2\\CCC/C(=C\\c3ccc(OC(=O)CCCCC4CCSS4)c(OC)c3)C2=O)ccc1OC(=O)CCCCC1CCSS1 (configuration not stated)"
property = "TGI"
test_value = "> 100 µM"

[[record]]
compound = "C[C@@H](CO)C1=C(O)c2ccc3c(c2C(=O)C1=O)CCCC3(C)C"
property = "TGI"
test_value = "> 100 µM"

[[record]]
compound = "COC(=O)[C@@]1(C)CCC[C@]2(C)[C@H]3Cc4occc4[C@H](C)[C@@H]3CC[C@@]12O"
property = "TGI"
test_value = "> 100 µM"

[[record]]
compound = "COc1ccc(OC)c2c1C=C[C@H](C1(C)SCCS1)C2C(C)=O (some centres not stated)"
property = "TGI"
test_value = "> 100 µM"

[[record]]
compound = "Nc1ccc(C(=O)N/C(=C\\C=C\\c2ccco2)c2nc3c4c(ccc3[nH]2)C(=O)c2ccccc2C4=O)cc1"
property = "TGI"
test_value = "> 100 µM"

[[record]]
compound = "CN(C)CCCN1N=Nc2cccc3cccc1c23"
property = "TGI"
test_value = "> 100 µM"

[[record]]
compound = "O=C(O)C1CCC(=O)N1C(=O)C(Cl)c1ccccc1 (configuration not stated)"
property = "TGI"
test_value = "> 100 µM"

[[record]]
compound = "Cc1noc(C)c1-n1nc2ccc3nonc3c2n1"
property = "TGI"
test_value = "> 100 µM"

[[record]]
compound = "O=C(O)CNCP(=O)(O)O"
property = "TGI"
test_value = "> 100 µM"

[[record]]
compound = "Fc1cccc(F)c1C1SCc2nc3cc4ccccc4cc3n21 (configuration not stated)"
property = "TGI"
test_value = "> 100 µM"

[[record]]
compound = "COC(=O)C(=O)C(C(=O)C(=O)Nc1ccc([N+](=O)[O-])cc1[N+](=O)[O-])c1nc2ccc(Cl)cc2[nH]c1=O (configuration not stated)"
property = "TGI"
test_value = "> 100 µM"

